Reference for the values: the supplement of paper PMC6555819

# System: PPARg:RXRa 270nM:90nM, anti-RXR (NR concentration 270 nM, RXRa partner concentration 90 nM)
# ASSAY_OVERVIEW: PBM binding z-score (relative to random genomic background probes); higher = stronger binding; sequences stand for … in GC…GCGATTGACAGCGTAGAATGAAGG
OBSERVABLE: PBM binding z-score
Field format: numeric only.

Below: 4 sequences and their reported PBM binding z-score.
INSERT INTO results (query_sequence, observable, experimental_value) VALUES
  ('TTACCAAGGTGAAGGTCGTTCATCCCTCTGTAGA', 'PBM binding z-score', 4.13),
  ('TCTGCTAGGTCAGTTGGTCGGCTAACGAGCTGCC', 'PBM binding z-score', 1.54),
  ('CCTAGCTGGTCAAGGTCACACACGCTATAGGTAC', 'PBM binding z-score', 3.05),
  ('CGTCCAAGGTCAGCAGGTCCGTGAAAGCGACGTG', 'PBM binding z-score', 3.15);

Bench note: what PBM binding z-score did `ACAGACAGGTGAGTGAAGGTACCTCAGCTGGACG` show? -0.227

Give its PBM binding z-score value. Item: `GCAACTGGGGCATCAGCAGGTTACCATAACTTAA` 1.76

====

# Test system: PPARg:RXRa (NR concentration 180 nM, RXRa partner concentration 90 nM)
# ASSAY_OVERVIEW: PBM binding z-score (relative to random genomic background probes); higher = stronger binding; sequences stand for … in GC…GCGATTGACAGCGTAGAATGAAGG
Label scheme for PBM binding z-score: lower than 1 is Not fulfilled, 1 and above is Fulfilled.

INSERT INTO assay_data (query_sequence, discrete_label) VALUES
  ('ATGGAAAGGTCGAAGGTGAGTATACCCACCCGAA', 'Fulfilled'),
  ('AGAATGAGGTTACCAAAGAGCAGGGAAACGCTTG', 'Fulfilled'),
  ('GCTTGTAGATCAAGGTTAAGACAGACTAAGCTAA', 'Fulfilled'),
  ('CCTATTAGTTGACCAAAAGGGCAACCGAAGCTCG', 'Not fulfilled'),
  ('CCGAATGGGGCATAAGGTTACCATAAGCCAGCCC', 'Fulfilled'),
  ('GCTGCTAGGTCAGGTTGGTCAGCTACCGGGTACG', 'Not fulfilled'),
  ('TAGCCGAGGTCATTGGGCCAGTATAGTACGCATC', 'Fulfilled'),
  ('ATCTCTAGGTAAAGATAGTTCAGTGACTGCAAAT', 'Not fulfilled'),
  ('CCTACTGGGCCACGAAAGATCATTGATTCAGTGA', 'Fulfilled'),
  ('TCATATAGGTCATACAGGTGAAAGTCGGCATCTA', 'Fulfilled');

Dear colleague, could you confirm whether `CCTTACGGGTCACGAGGTTACAGCACGACGAGCG` has PBM binding z-score at or above 1? Fulfilled

Check this sequence for PBM binding z-score at or above 1: `TGAATGAGGTTATAAGAGCAGGGAACGTTGCAAA` Fulfilled

Threshold query (PBM binding z-score >= 1) on `TAGCCTAGGTCAGATCGGGACAGTATACGCTATA` Not fulfilled

====

# Test system: PPARg DBDmut:RXRa IVT, anti-PPARg (DBD mutation: PPARg1 K132A/R137A, NR concentration 270 nM, RXRa partner concentration 90 nM)
# ASSAY_OVERVIEW: PBM binding z-score (relative to random genomic background probes); higher = stronger binding; sequences stand for … in GC…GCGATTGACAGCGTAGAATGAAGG
OBSERVABLE: PBM binding z-score
Response field accepts a number only; no unit should be typed.

INSERT INTO results (query_sequence, observable, experimental_value) VALUES
  ('ACTCGGAGGACAAAGGTCAGAGGTACGCCAGTGA', 'PBM binding z-score', 0.61);

Quick one: PBM binding z-score of `ACTATTAGTTGAGACGAGAGCAACCGATAGGTTG` ? 0.442

Request the reported PBM binding z-score associated with `GCTTGTAGATGAAGGTTAAGAAAGACTAAGCTAA` 0.135

Entry `CCGACTGGGGCAGAAAGGTTACCGTACCATCCGG` : reported PBM binding z-score = ? -1.2

Consider the sequence `ACTCAAAGTTCATCTAGGTAACGTAAGATATGCT` and give its measured PBM binding z-score. 2.23

Request the reported PBM binding z-score associated with `GCGACTGGGGCAAAGCAGGTTACCAGAAGGTTGG` -1.13
